Target: C. neoformans Sgl1 (Cryptococcus neoformans var. grubii, UniProt J9W473)
Sequence (J9W473 entry or part of it): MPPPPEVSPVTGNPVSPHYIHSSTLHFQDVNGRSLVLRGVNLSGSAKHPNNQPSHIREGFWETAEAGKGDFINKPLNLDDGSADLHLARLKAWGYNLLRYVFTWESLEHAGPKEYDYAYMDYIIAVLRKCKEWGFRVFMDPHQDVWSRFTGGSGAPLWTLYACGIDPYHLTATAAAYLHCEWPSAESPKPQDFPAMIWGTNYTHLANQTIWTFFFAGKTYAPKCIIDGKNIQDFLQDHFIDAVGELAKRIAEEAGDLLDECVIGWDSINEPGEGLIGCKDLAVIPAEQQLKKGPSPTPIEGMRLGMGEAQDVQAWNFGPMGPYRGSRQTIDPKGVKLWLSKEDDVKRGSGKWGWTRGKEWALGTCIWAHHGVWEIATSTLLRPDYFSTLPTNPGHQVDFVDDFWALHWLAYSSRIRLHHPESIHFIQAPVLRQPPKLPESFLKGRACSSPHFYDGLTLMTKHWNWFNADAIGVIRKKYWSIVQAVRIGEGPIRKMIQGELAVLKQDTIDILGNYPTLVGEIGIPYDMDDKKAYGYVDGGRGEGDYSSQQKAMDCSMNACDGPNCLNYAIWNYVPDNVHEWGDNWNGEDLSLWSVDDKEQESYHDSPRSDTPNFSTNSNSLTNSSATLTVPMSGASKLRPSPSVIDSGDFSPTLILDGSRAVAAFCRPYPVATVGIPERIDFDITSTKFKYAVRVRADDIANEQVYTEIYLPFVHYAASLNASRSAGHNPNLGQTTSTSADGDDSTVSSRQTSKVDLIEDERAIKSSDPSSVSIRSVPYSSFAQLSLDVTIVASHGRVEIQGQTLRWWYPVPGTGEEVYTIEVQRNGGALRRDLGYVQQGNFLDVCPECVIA
Assay: H/D exchange mass spectrometry mapping of disordered regions
Conditions: H/D exchange MS of C. neoformans Sgl1; per peptide (amino acids Start-End, Sequence); Fig S2a
Catalogue of substances with associated % Deuterium incorporation, Average
experimentalEndpoint: % Deuterium incorporation, Average (%)

substance=IYLPFVHY experimentalendpoint="% Deuterium incorporation, Average" reportedvalue=2.9
substance=DVTIVASHGRVEIQGQTLRWWYPVPGTGEEVY experimentalendpoint="% Deuterium incorporation, Average" reportedvalue=16.6
substance=IEDERAIKSSDPSS experimentalendpoint="% Deuterium incorporation, Average" reportedvalue=101.2
substance=RRDLGYVQQGN experimentalendpoint="% Deuterium incorporation, Average" reportedvalue=98.6
substance=VTIVASHGRVEIQGQTL experimentalendpoint="% Deuterium incorporation, Average" reportedvalue=23.2
substance=AKRIAEEAGDLLDE experimentalendpoint="% Deuterium incorporation, Average" reportedvalue=12.0
substance=INKPLNLDDGSADL experimentalendpoint="% Deuterium incorporation, Average" reportedvalue=26.9
substance=PVTGNPVSPHYIHSSTL experimentalendpoint="% Deuterium incorporation, Average" reportedvalue=36.8
substance=STNSNSLTNSSATLTVPMSGASKLRPSPSVIDSGDFSPTL experimentalendpoint="% Deuterium incorporation, Average" reportedvalue=72.8
substance=KKGPSPTPIEG experimentalendpoint="% Deuterium incorporation, Average" reportedvalue=6.7
substance=WAHHGVWE experimentalendpoint="% Deuterium incorporation, Average" reportedvalue=1.5
substance=VIGWDSINEPGEGLIG experimentalendpoint="% Deuterium incorporation, Average" reportedvalue=3.9
substance=ASKLRPSPSVIDSGDFSPTL experimentalendpoint="% Deuterium incorporation, Average" reportedvalue=47.3
substance=TGGSGAPLWTL experimentalendpoint="% Deuterium incorporation, Average" reportedvalue=5.6
substance=NYVPDNVHEWGDN experimentalendpoint="% Deuterium incorporation, Average" reportedvalue=41.1
substance=VGEIGIPYDMD experimentalendpoint="% Deuterium incorporation, Average" reportedvalue=24.9
substance=IYLPFVHYAASL experimentalendpoint="% Deuterium incorporation, Average" reportedvalue=21.4
substance=QDVNGRS experimentalendpoint="% Deuterium incorporation, Average" reportedvalue=17.0
substance=RAIKSSDPSSVS experimentalendpoint="% Deuterium incorporation, Average" reportedvalue=104.6
substance=KQDTIDILGNYPTL experimentalendpoint="% Deuterium incorporation, Average" reportedvalue=22.4
substance=ASKLRPSPSVIDSGDFSPTLIL experimentalendpoint="% Deuterium incorporation, Average" reportedvalue=40.9
substance=SIRSVPYSSF experimentalendpoint="% Deuterium incorporation, Average" reportedvalue=96.6
substance=RAIKSSDPSSVSIRSVPYSSF experimentalendpoint="% Deuterium incorporation, Average" reportedvalue=104.9
substance=RGVNLSGSAKHPNNQPSHIREGF experimentalendpoint="% Deuterium incorporation, Average" reportedvalue=44.7
substance=WSVDDKEQESYHDSPRSDTPNF experimentalendpoint="% Deuterium incorporation, Average" reportedvalue=83.4
substance=QLKKGPSPTPIEG experimentalendpoint="% Deuterium incorporation, Average" reportedvalue=10.2
substance=DDGSADLHL experimentalendpoint="% Deuterium incorporation, Average" reportedvalue=35.8
substance=STNSNSLTNSSATLTVPMSG experimentalendpoint="% Deuterium incorporation, Average" reportedvalue=99.8
substance=AVIPAEQQLKKGPSPTPIEGM experimentalendpoint="% Deuterium incorporation, Average" reportedvalue=29.8
substance=TLMTKHWNWFNA experimentalendpoint="% Deuterium incorporation, Average" reportedvalue=34.8
substance=IDAVGEL experimentalendpoint="% Deuterium incorporation, Average" reportedvalue=5.7
substance=WESLEHAGPKEYDYA experimentalendpoint="% Deuterium incorporation, Average" reportedvalue=8.8
substance=DVTIVASHGRVEIQGQTL experimentalendpoint="% Deuterium incorporation, Average" reportedvalue=21.1
substance=DERAIKSSDPSS experimentalendpoint="% Deuterium incorporation, Average" reportedvalue=103.7
substance=GQTTSTSADGDDSTVSSRQTSKVDL experimentalendpoint="% Deuterium incorporation, Average" reportedvalue=102.4
substance=WSVDDKEQES experimentalendpoint="% Deuterium incorporation, Average" reportedvalue=70.6
substance=AVIPAEQQLKKGPSPTPIEG experimentalendpoint="% Deuterium incorporation, Average" reportedvalue=30.1
